For each record, write down the corresponding abundance fitness.
B1: Poly(rC)-binding protein 1, residues 278 to 350; numbered along this chain, Q15365 (parent)
chain: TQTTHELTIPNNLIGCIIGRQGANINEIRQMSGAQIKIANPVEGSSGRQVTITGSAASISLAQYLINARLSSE

Variants of: B1
Assay: abundance fitness (aPCA) (normalised: wild type 0, dead -1); higher = more abundant; growth selection in yeast, the domain comes from the species named
Details: Homo sapiens

Lab note: T3L gave abundance fitness of 0.079

Lab note: Q49C gave abundance fitness of 0.006

Lab note: N24W gave abundance fitness of -0.161

Lab note: G22C gave abundance fitness of -0.113

Lab note: I17H gave abundance fitness of -0.831

Lab note: I9N gave abundance fitness of -0.805

Lab note: Q21G gave abundance fitness of -0.106

Lab note: A57R gave abundance fitness of 0.059

Lab note: A68C gave abundance fitness of 0.271

Lab note: R48P gave abundance fitness of -0.714

Lab note: R69A gave abundance fitness of -0.067

Lab note: S58K gave abundance fitness of -0.3

Lab note: R48M gave abundance fitness of -0.217

Lab note: S72L gave abundance fitness of -0.114

Lab note: R20Y gave abundance fitness of 0.019

Lab note: I36E gave abundance fitness of -0.986

Lab note: G44L gave abundance fitness of -0.401

Lab note: A68F gave abundance fitness of -0.459

Lab note: G44F gave abundance fitness of -0.182

Lab note: I9E gave abundance fitness of -0.942

Lab note: Q2W gave abundance fitness of 0.017

Lab note: Q21E gave abundance fitness of -0.09

Lab note: G33P gave abundance fitness of -1.04

Lab note: Q21K gave abundance fitness of 0.081

Lab note: R20M gave abundance fitness of -0.138

Lab note: E27V gave abundance fitness of -0.26

Lab note: A62Q gave abundance fitness of -0.78

Lab note: S32F gave abundance fitness of -1

Lab note: G47P gave abundance fitness of -0.491

Lab note: E43S gave abundance fitness of -0.02

Lab note: E27I gave abundance fitness of -0.164

Lab note: Q35E gave abundance fitness of -0.058

Ref: the Human Domainome abundance scans (Beltran et al. 2025)
